biological target: T1, Recombinant human CD47(ECD)-HIS (human, UniProt Q08722 19-139, limits assumed); test: competition ELISA: blocking of SIRPα binding to CD47(ECD)-HIS
T1 construct: also called huCD47-HIS; not shown: HIS tag
T1 sequence (Q08722 19-139 limits assumed): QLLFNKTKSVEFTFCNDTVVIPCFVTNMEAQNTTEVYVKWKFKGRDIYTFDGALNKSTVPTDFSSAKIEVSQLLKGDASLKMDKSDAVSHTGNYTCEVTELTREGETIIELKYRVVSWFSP
outcome.measure: IC50 (nM)
// return numeric value only (unit: nM, not printed)

Observe how each entry below is paired with its result.
{"binder": "H1L2 (antibody, V domains shown, Humanized from mouse 13B18A; also called humanized anti-CD47 mAb H1L2) VH: QVQLVQSGAEVKKPGASVKVSCKASGYTFTSYWMHWVRQAPGQGLEWMGNIDPSDSETHYNQKFKDRVTLTVDTSTSTVYMELSSLRSEDTAVYYCSRWGYYGKSAMDYWGQGTLVTVSS VL: AVQLTQSPSFLSASVGQRITINCRASKSISKYLAWYQQKPGKANKLLIYSGSTLQSGVPSRFSGSGSGTEFTLTISSLQPEDFAMYYCQQHNEYPWTFGGGTKVEIK", "IC50 / nM": 6.8}
{"binder": "H6L8 (antibody, V domains shown, also called humanized anti-CD47 mAb H6L8) VH: QIQLVQSGAEVKKPGASVKVSCKASGYTFTAYYINWVRQAPGQRLEWIGWIYPGSGNTKYNEKFKGRVTLTVDTSASTAYIELSSLRSEDTAVYFCARRGPWYFDVWGQGTTVTVSS VL: NIVMTQSPATLSLSPGERATLSCKASENVGTYVSWYQQKPGQSPNLLIYGASNRYTGVPDRFSGSGSATDFTLTISSLQPEDFADYHCGQTYSYPLTFGQGTKLEIK", "IC50 / nM": 13.2}
{"binder": "H2L4 (antibody, V domains shown, also called humanized anti-CD47 mAb H2L4) VH: QVQLVQSGAEVKKPGASVKLSCKASGYTFTSYWMHWVRQAPGQGLEWMGNIDPSDSETHYNQKFKDRVTLTVDTSTSTAYMELSSLRSEDTAVYYCSRWGYYGKSAMDYWGQGTLVTVSS VL: AVQITQSPSFLSASVGQTITINCRASKSISKYLAWYQEKPGKANKLLIYSGSTLQSGIPSRFSGSGSGTDFTLTISSLEPEDFAMYYCQQHNEYPWTFGGGTKVEIK", "IC50 / nM": 6.52}

stdin: Which measured IC50 value corresponds to H6L5 (antibody, V domains shown, also called humanized anti-CD47 mAb H6L5) VH: QIQLVQSGAEVKKPGASVKVSCKASGYTFTAYYINWVRQAPGQRLEWIGWIYPGSGNTKYNEKFKGRVTLTVDTSASTAYIELSSLRSEDTAVYFCARRGPWYFDVWGQGTTVTVSS VL: EIVMTQSPATLSLSPGERATLSCRASENVGTYVSWYQQKPGQAPNLLIYGASNRYTGIPARFSGSGSGTDFTLTISSLQPEDFAVYHCGQTYSYPLTFGQGTKLEIK ?
stdout: 9.67
